Data credit: patent US20240059712A1

molecular target: KRAS^G12D protein (Homo sapiens, UniProt P01116, G12D); construct: host or cells: Aspc-1 (AsPC-1) cells; test: Protein degradation study (western blot) in Aspc-1 cells; type: cell-based; settings: Aspc-1 cells; half-maximum degradation concentration; read-out: DC50 of compounds induced Ras G12D protein degradation
Sequence (P01116 1-188 isoform P01116-2 G12D): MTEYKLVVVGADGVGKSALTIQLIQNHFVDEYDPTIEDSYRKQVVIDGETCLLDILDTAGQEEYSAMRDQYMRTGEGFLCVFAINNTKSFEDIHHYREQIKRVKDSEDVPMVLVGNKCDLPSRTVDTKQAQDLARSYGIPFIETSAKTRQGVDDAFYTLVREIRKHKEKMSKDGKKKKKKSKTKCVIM
Overview of reported DC50 across a group of molecules:

MOLECULE: C#Cc1c(F)ccc2cc(O)cc(-c3ncc4c(N5CC6CCC(C5)N6)nc(OCC5(CN6CCC7(CCC(C(=O)N8CCC(c9ccc%10c(C%11CCC(=O)NC%11=O)nn(C)c%10c9)CC8)CC7)CC6)CC5)nc4c3F)c12 (stereo not shown) [Compound 24a]
DC50: < 0.01 µM

MOLECULE: C#Cc1c(F)ccc2cc(O)cc(-c3ncc4c(N5CC6CCC(C5)N6)nc(OCC5(CN6CCC(N7CC(CN8CCC(c9ccc%10c(C%11CCC(=O)NC%11=O)nn(C)c%10c9)CC8)C7)CC6)CC5)nc4c3F)c12 (stereo not shown) [Compound 30a]
DC50: < 0.01 µM

MOLECULE: C#Cc1c(F)ccc2cc(O)cc(-c3ncc4c(N5CC6CCC(C5)N6)nc(OCC5(CN6CCC7(CC6)CC(N6CCC(c8ccc(NC9CCC(=O)NC9=O)cc8F)CC6)C7)CC5)nc4c3F)c12 (stereo not shown) [Compound 12a]
DC50: < 0.01 µM

Input C#Cc1c(F)ccc2cc(O)cc(-c3ncc4c(N5CC6CCC(C5)N6)nc(OC5CCN(CCCCCCCCCCC(=O)N[C@H](C(=O)N6C[C@H](O)C[C@H]6C(=O)N[C@@H](C)c6ccc(-c7scnc7C)cc6)C(C)(C)C)C5)nc4c3F)c12 (stereo partly shown) [Compound 55] . Output DC50: 0.051 to 0.1 µM
